These measurements were taken from ChEMBL document CHEMBL4715750.

procedureDetails: Cytotoxicity against human SH-SY5Y cells assessed as cell viability at 6.3 uM measured after 2 hrs by MTT assay relative to control
Type: cell-based
studyConditions: read-out: Activity
reportedProperty: viability at 2 h, 6.3 µM (%)
One number for each entry, in %.

A selection of reference data follows.
COc1cc2c(cc1O)CCC(C)(CC(N)=O)O2 (stereo not given) : 80.8
COc1cc2c(cc1O)CCC(C)(CC(N)C(=O)O)O2 (stereo not given) : 100
COc1cc2c(cc1O)CCC(C)(CC(=O)N[C@H](C(=O)O)C(C)C)O2 (stereo not given in full) : 99.7
COc1cc2c(cc1O)CCC(C)(CC(=O)N1CCC[C@H]1C(=O)O)O2 (stereo not given in full) : 98.8

Next, consider the following compound.
// viability at 2 h, 6.3 µM lookup, key: COc1cc2c(cc1O)CCC(C)(CC(=O)N[C@@H](Cc1c[nH]c3ccccc13)C(=O)O)O2 (stereo not given in full)
100

###

Assignment: determine reported Papp for the given compounds.
procedureDetails: Permeability of the compound at pH 7.4 by PAMPA-BBB assay
Assay type: ADME
studyConditions: read-out: permeability
One number for each entry, in ×10⁻⁶ cm/s.

A selection of reference data follows.
COc1cc2c(cc1O)CCC(C)(C)O2 : 0.25
COc1cc2c(cc1O)CCC(C)(CCNC(C)=O)O2 (centres undefined) : 0.52

Here are 2 compounds. What values of Papp were reported for them?
1. COc1cc2c(cc1O)CCC(C)(CC(=O)N[C@@H](C)C(=O)O)O2 (some centres undefined)
2. COc1cc2c(cc1O)CCC(C)(CC(=O)NCCc1ccc(O)c(O)c1)O2 (centres undefined)

1: 0.06; 2: 0.2

###

procedureDetails: Cytotoxicity against human SH-SY5Y cells assessed as cell viability at 3.1 uM measured after 24 hrs by MTT assay relative to control
Format: cell-based
studyConditions: read-out: Activity
Assignment: determine reported viability at 24 h, 3.1 µM for the given compounds.
Answers are plain numbers, in %.

A selection of reference data follows.
COc1cc2c(cc1O)CCC(C)(CC(=O)N[C@@H](Cc1c[nH]c3ccccc13)C(=O)O)O2 (stereo partly drawn) : 100
COc1cc2c(cc1O)CCC(C)(CC(=O)O)O2 (stereo not drawn) : 100

// viability at 24 h, 3.1 µM lookup, key: COc1cc2c(cc1O)CCC(C)(CC(N)C(=O)O)O2 (stereo not drawn)
100
